Reference source for all entries: patent US10597674B2

tested on: HPPD polypeptides (wild-type SEQ ID NO:1 and mutants); settings: in the presence of mesotrione (MST), 60 μM inhibitor, high substrate concentration; kapp normalized to kapp without inhibitor
Residual activity values by entry
readout type: Residual activity (%)

• 19 (protein, mutant HPPD polypeptide) MADLYENPMGLMGFEFIEFASPTPGTLEPIFEIMGFTKVATHRSKNVHLYRQGEINLILNNEPNSIASYFAAEHGPSVCGMAFRVKDSQKAYNRALELGAQPIHIDTGPMELNLPAIKGIGGAPLYLIDRFGEGSSIYDIDFVYLEGVERNPVGAGLKVIDHLTHNVYRGRMVYWANFYEKLFNFREARYFDIKGEYTGLTSKAMSAPDGMIRIPLNEESSKGAGQIEEFLMQFNGEGIQHVAFLTDDLVKTWDALKKIGMRFRTAPGDEYYEMLEGRLPDHGEPVDQLQARGILLDGSSVEGDKRLLLQIFSETLMGPVFFEFIQRKGHDGFGPDSFKVLFESVERDQVRRGVLTAD = 51
• 24 (protein, mutant HPPD polypeptide) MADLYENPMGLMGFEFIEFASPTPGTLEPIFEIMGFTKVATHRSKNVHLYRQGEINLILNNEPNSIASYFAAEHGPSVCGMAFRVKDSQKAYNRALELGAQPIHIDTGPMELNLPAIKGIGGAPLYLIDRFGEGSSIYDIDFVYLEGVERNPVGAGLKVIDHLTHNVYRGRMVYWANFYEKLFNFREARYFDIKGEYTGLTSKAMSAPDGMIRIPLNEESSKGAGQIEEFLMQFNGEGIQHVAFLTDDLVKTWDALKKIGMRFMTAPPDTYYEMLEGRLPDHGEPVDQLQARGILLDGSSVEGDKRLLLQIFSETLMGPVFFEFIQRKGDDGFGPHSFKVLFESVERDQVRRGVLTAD = 51
• 16 (protein, mutant HPPD polypeptide) MADLYENPMGLMGFEFIEFASPTPGTLEPIFEIMGFTKVATHRSKNVHLYRQGEINLILNNEPNSIASYFAAEHGPSVCGMAFRVKDSQKAYNRALELGAQPIHIDTGPMELNLPAIKGIGGAPLYLIDRFGEGSSIYDIDFVYLEGVERNPVGAGLKVIDHLTHNVYRGRMVYWANFYEKLFNFREARYFDIKGEYTGLTSKAMSAPDGMIRIPLNEESSKGAGQIEEFLMQFNGEGIQHVAFLTDDLVKTWDALKKIGMRFMTAPSDSYYEMLEGRLPDHGEPVDQLQARGILLDGSSVEGDKRLLLQIFSETLMGPVFFEFIQRKGDDGFGPDSFKVLFESKERDQVRRGVLTAD = 88
